protocol description: soluble on expression in E. coli; label from the status in PepcDB or PDB records
observable: soluble on expression in E. coli

Record excerpt, results attached:
residue_string=MQDFDFSFNPKACEGCGAKCCVGESGYIFLNIQEMQQISAFLKLELEEFSQKYVKKVGYKFSLLEKDAKELGLACVFLDLETKKCQIYSVRPKQCQTFPFWEGVKTFSKEQKEAFCQSCPGITQKTKETKVRLEHHHHHH observable="soluble on expression in E. coli" measurement="not soluble"
residue_string=MGSDKIHHHHHHMDIREKKTPPTLAPGQTSNPATSLPPRTVEGLRDLVVSIGRDQAEVKLGAKALTVLAHLVERPEEVAVRTITDLANSLDVNASTLTRLATRLGFEGFAEFQGVFRNSMAQRHRHFYSQQAERLVGADNTGMPGGVSPEVGAVVQLAHESIQNVERFVARLSAEELRGAAELLAEAPRVRVHGLRQFSALASFLCYGLSMIRSDVGLLDAHGLGVAEGLAQLQRGDVVVVMSVAPYTRSVAEAAAAAAESGLTVIAITDTSASPLAAAARHAFFIPHESSFFSNSMGAYLIFCEGLLNLAATKLGKRSLRALARREQMIAALDIETE observable="soluble on expression in E. coli" measurement="not soluble"
residue_string=MILIIYAHPYPHHSHANKRMLEQAGTLENVEIRSLYHLYPDFNIDVAAEQEALSRASLIVWQHPMQWYSVPPLLKLWMDKVLTHGWAYGHGGTALHGKHLLWAVTTGGGENHFAIGSHPGFDVLSQPLQATALYCGLKWLSPFAMHCTFICDDDTLQAQARQYKQRLLAWQEVNHG observable="soluble on expression in E. coli" measurement="not soluble"
residue_string=MSNLPFHQFCGTEGYVASRALQDVVNVAIALERPLLLKGEPGTGKTLLAYHIAKALGMEIILWNVKSTTKARDGLYTYDTVQRLNDARFGDGDVRDIRHYIKLGPLGRAFGSAERVVLLIDEVDKADIEFPNDLLFELDEMRFHVLETDEWVSAAHRPVVIVTSNSEKELPDAFLRRCVFHYIDFPDETQMRAIIDVHFPDLPAELMRSACKVFYGLREVPGLRKRPSTSELLDWIRVLLASGARLPEEETPALQSVPFLGALVKIQEDADILAHHASRSADVRTAGRRFFRLEHHHHHH observable="soluble on expression in E. coli" measurement="not soluble"
residue_string=EDWNEIDPIKKKDLHHSNGEEKAQSMETLPPGKVRWPDFNQEAYVGGTMVRSGQDPYARNKFNQVESDKLRMDRAIPDTRHD observable="soluble on expression in E. coli" measurement=soluble
residue_string=MKPDAHQVKQFLLNLQDTICQQLTAVDGAEFVEDSWQREAGGGGRSRVLRNGGVFEQAGVNFSHVHGEAMPASATAHRPELAGRSFEAMGVSLVVHPHNPYVPTSHANVRFFIAEKPGAEPVWWFGGGFDLTPFYGFEEDAIHWHRTARDLCQPFGEDVYPRYKKWCDDYFYLKHRNEQRGIGGLFFDDLNTPDFDHCFAFMQAVGKGYTDAYLPIVERRKAMAYGERERNFQLYRRGRYVEFNLVWDRGTLFGLQTGGRTESILMSMPPLVRWEYDYQPKDGSPEAALSEFIKVRDWGLEHHHHHH observable="soluble on expression in E. coli" measurement="not soluble"

Value sought for every listed sequence: soluble on expression in E. coli.
1. MMAFAPPKNTDGPKMQTKMSTWTPLNHQLLNDRVFEERRALLGKWFDKWTDSQRRRILTGLLERCSLSQQKFCCRKLQEKIPAEALDFTTKLPRVLSLYIFSFLDPRSLCRCAQVCWHWKNLAELDQLWMLKCLRFNWYINFSPTPFEQGIWKKHYIQMVKELHITKPKTPPKDGFVIADVQLVTSNSPEEKQSPLSAFRSSSSLRKKNNSGEKALPPWRSSDKHPTDIIRFNYLDNRDPMETVQQGRRKRNQMTPDFSRQSHDKKNKLQDRTRLRKAQSMMSRRNPFPLCP
2. MKTTLIKVIAASVTALFLSMQVYASGHTAHVDEAVKHAEEAVAHGKEGHTDQLLEHAKESLTHAKAASEAGGNTHVGHGIKHLEDAIKHGEEGHVGVATKHAQEAIEHLRASEHKSH
3. MSIQQIIEQKIQKEFQPHFLAIENESHLHHSNRGSESHFKCVIVSADFKNIRKVQRHQRIYQLLNEELNHSIHALALHLFTPEEWKAQNETVPHSTKCAGIGRLEHHHHHH
4. MKELTNEELRGIQLEQLKYIDRICRENGIEYTLAGGSLIGAIRHGGYIPWDDDIDIELTRPHYDHLISVLMDQLPNEKYALLHYKVRETYLPFAKLYDTRTSFTSKIDNLNRGTGVFLDIFPMDILPDNEEERQVFKKEFLKKAIQLTASNPHGLDFASSSKKIYFWGKLVLWMPQHIRFYGKYRILAEKLDEFMQKYRNSDNQLISYLYTGYKKAIFPKEIWEEYEDVKFEGLTARKLKNHEEYLTRQYGDYMKLEHHHHHH
5. NKDFEWSTTGTFSLNSNKLISLSGSIFKSDYDYFNTGTVEYSGQVADSHRVQVGESIGNFYGFKVVDVDSEGRWIYEDRNGELVNYKDFTHAPEDKHVIGNGLPKWYAGWNNTLRYKNFDLNVTMRGAFGFQIINGGRMNYENVKNSRFENRLKSVNDLVFGKHTLSPEVEPEFNSYYVEDGDYWKIDNITLGYSFGQVGKYIKSLRIYGSVLNALTITGYKGIDPEVSTDGLTPGYDTRDRYPSVRSFTFGVNVKF
6. MRQSISNDVATISRISAVPAILQVITESTGLGFAAVARVTEDSWTACAVLDNLGFGLKPGGELELISTICHEIRASHKPVVIDHVAEDELFCAHHTPRRYNFQSYISIPIFLTDGSFFGTICALDPKPAKLTGTPIEAMMVSFARLLALQIEAEENMQRVQ

["not soluble", "not soluble", "soluble", "not soluble", "not soluble", "not soluble"]

Specify measured soluble on expression in E. coli for "KVQTDPPSVPICDLYPNGVFPKGQECEYPPTQDGRTAAWRTTSEEKKALDQASEEIWNDFREAAEAHRQVRKYVMSWIKPGMTMIEICEKLEDCSRKLIKENGLNAGLAFPTGCSLNNCAAHYTPNAGDTTVLQYDDICKIDFGTHISGRIIDCAFTVTFNPKYDTLLKAVKDATNTGIKCAGIDVRLCDVGEAIQEVMESYEVEIDGKTYQVKPIRNLNGHSIGQYRIHAGKTVPIIKGGEATRMEEGEVYAIETFGSTGKGVVHDDMECSHYMKNFDVGHVPIRLPRTKHLLNVINENFGTLAFCRRWLDRLGESKYLMALKNLCDLGIVDPYPPLCDIKGSYTAQFEHTILLRPTCKEVVSRGDDY" .
soluble

The reported numbers originate from the DeepSol protein solubility set.
